Data origin, for the record: a protein production outcome set (Wang et al. 2014)

assay: label from the status in PepcDB records
measuredParameter: protein production

{"inputSequence": "MTLLQQIMWGSLYLGLCFVVEVLLLVWCTLVIVHLSIRLRHLSRAMRTAAVISVSLAFIVLAHTLQVWLWAGVWIWSDVLTDWNEALYFSLVTYTTLGYGDIVLGPGLRIFAAFAAVAGLLAFGLSTAYLVALMSRVFEGRLPR", "measuredParameter": "protein production", "result": "failed"}
{"inputSequence": "MGKMRTPQEVPARLDALAEAARKLKFDVREPVDAGAGAIGAVHSLDYLRFLREAHARWKQLPDDWGDEVVSNVFVREPNALRGVLAQAARYLADGSCPVGPHTWQSAYWAAQCAISGAQTLLDGERHAYALCRPPGHHARRDAAGGFCYLNNAAIAAQMLTQRYKRVAILDTDMHHGQGIQEIFYERSDVLYVSIHGDPENFYPVVAGFENERGAGEGYGYNVNLPMPHGSPEPVFFDRLQQAQRAIELFQPDALVLSLGFDVFEKDPQAMVAVSANGFERLGQAIGAFKLPTLIVQEGGYYIEGLEDNAERFFAGLAKALEHHHHHH", "measuredParameter": "protein production", "result": "failed"}
